Target: ATP-dependent translocase ABCB1 (Homo sapiens)
Assay: Inhibition of [125I]IAAP labeling to human MDR1 expressed in baculovirus infected insect cell membranes by electrophoresis method
Property label: IC50
Your reply should be a number followed by the unit it is expressed in.

Task: Endpoint output: IC50 of Nc1ncnc2c1ncn2[C@@H]1O[C@H](COC(=O)c2ccc(S(=O)(=O)F)cc2)[C@@H](O)[C@H]1O . Value?
Output: 170 nM

---

Assay: Half life in male Sprague-Dawley rat at 50 mg/kg, po by LC-MS/MS method
Type: ADME, organism-based
Details: in vivo
Property label: half-life (h)
Quick note: give the figure in h, leave out the unit.

Task: Endpoint output: half-life of COc1ccc2cc1Oc1ccc(cc1)C[C@@H]1c3cc(c(OC)cc3CCN1C)Oc1c(OC)c(OC)c(Br)c3c1[C@H](C2)N(C)CC3 . Value?
Output: 8.67

---

Biological target: Broad substrate specificity ATP-binding cassette transporter ABCG2 (Homo sapiens)
Sequence (Q9UNQ0 whole entry): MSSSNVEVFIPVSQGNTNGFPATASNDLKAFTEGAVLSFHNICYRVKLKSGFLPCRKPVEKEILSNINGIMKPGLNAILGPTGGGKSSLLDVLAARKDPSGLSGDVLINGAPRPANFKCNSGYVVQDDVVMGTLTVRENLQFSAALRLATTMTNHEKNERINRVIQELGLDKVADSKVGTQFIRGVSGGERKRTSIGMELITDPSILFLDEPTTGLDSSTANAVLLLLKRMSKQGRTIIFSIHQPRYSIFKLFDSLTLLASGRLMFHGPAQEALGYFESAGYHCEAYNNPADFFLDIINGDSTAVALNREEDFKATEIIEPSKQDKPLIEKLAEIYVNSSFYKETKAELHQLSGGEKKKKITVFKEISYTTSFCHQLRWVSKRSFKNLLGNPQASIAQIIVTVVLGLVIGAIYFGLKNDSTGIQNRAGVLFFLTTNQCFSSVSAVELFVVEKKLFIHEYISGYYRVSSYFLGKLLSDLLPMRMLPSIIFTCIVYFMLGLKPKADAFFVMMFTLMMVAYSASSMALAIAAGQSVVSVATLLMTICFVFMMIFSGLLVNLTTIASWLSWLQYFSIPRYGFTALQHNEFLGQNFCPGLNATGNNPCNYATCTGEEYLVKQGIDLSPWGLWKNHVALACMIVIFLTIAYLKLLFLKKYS
Assay: Inhibition of BCRP (unknown origin)
Property label: IC50 (µM)
Quick note: give the figure in µM, leave out the unit.

Task: Notebook: pull reported IC50 for Broad substrate specificity ATP-binding cassette transporter ABCG2 (Homo sapiens), entry COC(=O)[C@H]1[C@H]2C[C@@H]3c4[nH]c5cc(OC)ccc5c4CCN3C[C@H]2C[C@@H](OC(=O)c2cc(OC)c(OC)c(OC)c2)[C@@H]1OC
Output: 12.6

---

Assay: Cmax in male Sprague-Dawley rat at 50 mg/kg, po by LC-MS/MS method
Type: ADME, organism-based
Design: dose 50 mg/kg, route oral
Settings: in vivo
Property label: Cmax (ng/mL)
Quick note: give the figure in ng/mL, leave out the unit.

Task: Endpoint output: Cmax of COc1ccc2cc1Oc1ccc(cc1)C[C@@H]1c3cc(c(OC)cc3CCN1C)Oc1c(OC)c(OC)c(Br)c3c1[C@H](C2)N(C)CC3 . Value?
Output: 607

---

Test: Tmax in male Sprague-Dawley rat at 50 mg/kg, po by LC-MS/MS method
Format: ADME, organism-based
Conditions: in vivo
Property label: Tmax (h)
Quick note: give the figure in h, leave out the unit.

Task: Endpoint output: Tmax of COc1ccc2cc1Oc1ccc(cc1)C[C@@H]1c3cc(c(OC)cc3CCN1C)Oc1c(OC)c(OC)c(Br)c3c1[C@H](C2)N(C)CC3 . Value?
Output: 3.67

---

Assay: Half life in patient with advanced stage of cancer at 500 mg/m2 by HPLC method
Assay type: ADME, organism-based
Conditions: human, in vivo
Property label: half-life

Task: Endpoint output: half-life of COc1ccc2cc1Oc1ccc(cc1)C[C@@H]1c3cc(c(OC)cc3CCN1C)Oc1c(OC)c(OC)cc3c1[C@H](C2)N(C)CC3 [ISOTETRANDRINE] . Value?
Output: 120 to 168 h

---

Test: Half life in rat at 50 mg/kg, po by LC-MS/MS method
Type: ADME, organism-based
Settings: in vivo
Property label: half-life (h)
Quick note: give the figure in h, leave out the unit.

Task: Endpoint output: half-life of COc1ccc2cc1Oc1ccc(cc1)C[C@@H]1c3cc(c(OC)cc3CCN1C)Oc1c(OC)c(OC)cc3c1[C@H](C2)N(C)CC3 . Value?
Output: 20

---

Assay: Tmax in female Sprague-Dawley rat at 50 mg/kg, po by LC-MS/MS method
Assay type: ADME, organism-based
Details: in vivo
Property label: Tmax (h)
Quick note: give the figure in h, leave out the unit.

Task: Endpoint output: Tmax of COc1ccc2cc1Oc1ccc(cc1)C[C@@H]1c3cc(c(OC)cc3CCN1C)Oc1c(OC)c(OC)c(Br)c3c1[C@H](C2)N(C)CC3 . Value?
Output: 4.67

---

Test: Inhibition of P-gp in rat AS30-D/COL10 cell plasma membrane vesicles assessed as reduction in [3H]VBL transport
Property label: IC50 (µM)
Quick note: give the figure in µM, leave out the unit.

Task: Endpoint output: IC50 of C=C[C@]1(C)C[C@@H](OC(=O)CSCCN(CC)CC)[C@]2(C)[C@H](C)CC[C@]3(CCC(=O)[C@H]32)[C@@H](C)[C@@H]1O [TIAMULIN] . Value?
Output: 6.2

---

Experiment: Inhibition of P-gp in human MCF7/DX1 cells assessed as […] Rh123 accumulation after 30 to 40 mins by FACS analysis
Format: cell-based
Property label: IC50 (nM)
Quick note: give the figure in nM, leave out the unit.

Task: Endpoint output: IC50 of COc1ccc2c3c1O[C@@H]1C[C@H](OC(=O)CCCCCCCCC(=O)O[C@H]4C=C[C@@]56CN(C)CCc7ccc(OC)c(c75)O[C@H]6C4)C=C[C@]31CN(C)CC2 . Value?
Output: 800

---

Test: Half life in female Sprague-Dawley rat at 50 mg/kg, po by LC-MS/MS method
Format: ADME, organism-based
Details: in vivo
Property label: half-life (h)
Quick note: give the figure in h, leave out the unit.

Task: Endpoint output: half-life of COc1ccc2cc1Oc1ccc(cc1)C[C@@H]1c3cc(c(OC)cc3CCN1C)Oc1c(OC)c(OC)c(Br)c3c1[C@H](C2)N(C)CC3 . Value?
Output: 18.2

---

Assay: Tmax in rat at 50 mg/kg, po by LC-MS/MS method
Assay type: ADME, organism-based
Details: in vivo
Property label: Tmax (h)
Quick note: give the figure in h, leave out the unit.

Task: Endpoint output: Tmax of COc1ccc2cc1Oc1ccc(cc1)C[C@@H]1c3cc(c(OC)cc3CCN1C)Oc1c(OC)c(OC)cc3c1[C@H](C2)N(C)CC3 [ISOTETRANDRINE] . Value?
Output: 6

---

Target: ATP-dependent translocase ABCB1 (Homo sapiens, UniProt P08183)
Sequence (P08183 whole entry): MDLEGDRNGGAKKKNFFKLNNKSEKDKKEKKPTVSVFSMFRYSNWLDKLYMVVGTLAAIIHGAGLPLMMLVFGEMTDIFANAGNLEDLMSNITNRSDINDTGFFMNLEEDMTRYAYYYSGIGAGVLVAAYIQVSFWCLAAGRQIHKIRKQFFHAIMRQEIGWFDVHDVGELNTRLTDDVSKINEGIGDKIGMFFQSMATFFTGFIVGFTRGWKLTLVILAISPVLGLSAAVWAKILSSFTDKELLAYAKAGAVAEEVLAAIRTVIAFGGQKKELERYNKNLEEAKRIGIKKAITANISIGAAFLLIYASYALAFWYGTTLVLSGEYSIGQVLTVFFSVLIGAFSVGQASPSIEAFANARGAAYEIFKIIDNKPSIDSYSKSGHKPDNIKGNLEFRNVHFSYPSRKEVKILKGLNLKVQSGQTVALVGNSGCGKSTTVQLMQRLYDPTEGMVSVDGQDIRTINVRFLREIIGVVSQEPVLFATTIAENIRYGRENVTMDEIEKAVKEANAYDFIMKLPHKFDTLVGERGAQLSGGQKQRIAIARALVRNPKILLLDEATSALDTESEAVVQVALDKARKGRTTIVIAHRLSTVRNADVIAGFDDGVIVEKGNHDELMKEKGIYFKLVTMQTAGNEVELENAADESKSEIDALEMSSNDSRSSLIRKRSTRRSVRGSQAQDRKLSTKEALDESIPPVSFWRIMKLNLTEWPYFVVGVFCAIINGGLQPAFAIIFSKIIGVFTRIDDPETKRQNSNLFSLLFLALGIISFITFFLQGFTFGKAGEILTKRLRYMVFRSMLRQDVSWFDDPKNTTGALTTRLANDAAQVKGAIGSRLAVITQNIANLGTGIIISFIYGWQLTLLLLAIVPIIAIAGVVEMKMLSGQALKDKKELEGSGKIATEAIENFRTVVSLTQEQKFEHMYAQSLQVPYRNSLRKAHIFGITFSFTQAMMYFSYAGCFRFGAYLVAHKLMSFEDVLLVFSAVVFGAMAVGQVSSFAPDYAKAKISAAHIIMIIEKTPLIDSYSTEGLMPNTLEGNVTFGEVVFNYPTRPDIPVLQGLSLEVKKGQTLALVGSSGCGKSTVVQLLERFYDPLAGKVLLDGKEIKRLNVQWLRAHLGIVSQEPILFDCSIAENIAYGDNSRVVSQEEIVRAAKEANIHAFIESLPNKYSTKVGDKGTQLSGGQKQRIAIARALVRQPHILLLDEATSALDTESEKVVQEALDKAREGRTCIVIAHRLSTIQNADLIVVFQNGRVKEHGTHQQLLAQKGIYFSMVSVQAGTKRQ
Experiment: Inhibition of human MDR1 ATPase activity expressed in baculovirus infected insect cells preincubated for 30 mins followed by ATP addition measured after 20 mins by colorimetric method
Property label: pIC50
Reminder that pIC50 means the negative base-10 logarithm of the concentration expressed in mol/L.

Task: Endpoint output: pIC50 of Nc1ncnc2c1ncn2[C@@H]1O[C@H](COC(=O)c2ccc(S(=O)(=O)F)cc2)[C@@H](O)[C@H]1O . Value?
Output: 6.68

---

Biological target: UniProtKB Q92887
Sequence (Q92887 whole entry): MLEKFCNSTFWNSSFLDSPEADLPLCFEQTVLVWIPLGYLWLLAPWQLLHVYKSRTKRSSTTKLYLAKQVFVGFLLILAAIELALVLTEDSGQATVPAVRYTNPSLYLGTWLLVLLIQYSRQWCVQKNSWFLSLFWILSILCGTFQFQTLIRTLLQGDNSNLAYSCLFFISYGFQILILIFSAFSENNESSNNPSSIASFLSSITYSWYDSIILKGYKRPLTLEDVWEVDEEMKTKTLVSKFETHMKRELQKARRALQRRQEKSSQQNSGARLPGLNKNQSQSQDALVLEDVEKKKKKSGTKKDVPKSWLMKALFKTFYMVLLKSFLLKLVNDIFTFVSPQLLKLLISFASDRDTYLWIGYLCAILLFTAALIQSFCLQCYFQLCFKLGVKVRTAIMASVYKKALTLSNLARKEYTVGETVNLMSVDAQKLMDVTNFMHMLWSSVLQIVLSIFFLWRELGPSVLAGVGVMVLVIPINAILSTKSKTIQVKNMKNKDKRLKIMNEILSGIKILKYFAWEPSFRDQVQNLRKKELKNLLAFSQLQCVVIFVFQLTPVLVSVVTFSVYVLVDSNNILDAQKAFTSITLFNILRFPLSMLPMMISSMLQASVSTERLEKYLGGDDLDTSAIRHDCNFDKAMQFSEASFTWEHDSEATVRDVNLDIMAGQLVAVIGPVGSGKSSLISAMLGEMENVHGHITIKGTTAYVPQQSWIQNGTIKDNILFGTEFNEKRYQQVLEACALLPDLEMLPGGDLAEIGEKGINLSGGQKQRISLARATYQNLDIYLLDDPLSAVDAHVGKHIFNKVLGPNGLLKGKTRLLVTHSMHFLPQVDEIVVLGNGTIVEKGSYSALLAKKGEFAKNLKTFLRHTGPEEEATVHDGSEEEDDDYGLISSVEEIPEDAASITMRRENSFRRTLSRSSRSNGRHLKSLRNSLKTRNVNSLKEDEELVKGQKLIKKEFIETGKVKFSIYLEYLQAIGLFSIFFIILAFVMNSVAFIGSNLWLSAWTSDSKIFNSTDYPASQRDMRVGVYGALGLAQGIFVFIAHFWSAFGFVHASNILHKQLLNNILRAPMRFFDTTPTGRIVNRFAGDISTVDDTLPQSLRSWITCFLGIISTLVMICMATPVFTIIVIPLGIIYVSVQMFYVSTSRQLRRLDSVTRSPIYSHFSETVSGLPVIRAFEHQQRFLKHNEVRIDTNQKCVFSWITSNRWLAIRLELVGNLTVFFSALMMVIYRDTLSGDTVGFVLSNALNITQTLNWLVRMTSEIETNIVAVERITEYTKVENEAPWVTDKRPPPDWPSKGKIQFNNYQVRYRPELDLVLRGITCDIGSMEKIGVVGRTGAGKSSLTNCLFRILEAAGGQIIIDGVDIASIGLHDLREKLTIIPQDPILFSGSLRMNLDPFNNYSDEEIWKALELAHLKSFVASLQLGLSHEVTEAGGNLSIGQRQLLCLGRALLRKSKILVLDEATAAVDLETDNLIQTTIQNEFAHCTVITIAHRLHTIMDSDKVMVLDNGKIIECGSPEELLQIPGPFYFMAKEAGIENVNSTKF
Experiment: Inhibition of MRP2 in human Caco2 cells assessed as reduction in pravastatin sodium efflux at 4 uM relative to control
Assay type: cell-based
Conditions: Caco-2 cells, probe pravastatin sodium
Property label: inhibition at 4 µM

Task: Endpoint output: inhibition at 4 µM of O=C1c2ccccc2-n2c1nc1ccccc1c2=O [TRYPTANTHRIN] . Value?
Output: > 30%
